Could you please report measured GI50 for the items listed next?
# Tested on: Malme-3M
# Assay Comment: NCI tumour cell line growth inhibition, 48 h
Active and inactive are the calls of the source. Rule as the data show it: active = GI50 up to about 1.1 µM and inactive = higher.

Look over these answered cases.
[[record]]
compound = "Fc1ccc(F)c(/C=N/C23CC4CC(CC(C4)C2)C3)c1"
test_result = "> 10 µM (inactive)"

[[record]]
compound = "CC1=C(C(=O)Nc2ccccc2)C(c2ccc(C)o2)C(C#N)=C(SCc2ccccc2)N1 (stereo unspecified)"
test_result = "5.77 µM (inactive)"

[[record]]
compound = "COc1cc(C(CC(OC)OC)=C(C#N)C#N)cc(OC)c1OC"
test_result = "26.1 µM (inactive)"

[[record]]
compound = "CC(C)(C)/C(O)=C\\c1nc2cc(C(F)(F)F)ccc2[nH]c1=O"
test_result = "> 100 µM (inactive)"

[[record]]
compound = "C/C(=N\\NC(=S)NC(C)(C)C)c1ccccn1"
test_result = "2.83 µM (inactive)"


Request: Query GI50 for Nc1nc(OCC2CCCCC2)c2nc[nH]c2n1
Result: 5.73 µM (inactive)

###

# Test system: UO-31
# Assay Comment: NCI tumour cell line growth inhibition, 48 h
The source made the active and inactive calls. Rule as the data show it: active = GI50 up to about 1.1 µM and inactive = higher.
The categories you may choose from are active, inactive

[[record]]
molecule = "Cc1cnc2c(c1)C(=O)N(c1ccc(Oc3ccccc3)cc1)S2(=O)=O"
system = "UO-31"
cat = "inactive"


Request: What outcome does the record of this test show for C[Si](C)(OCCS(=O)(=O)O)OC(=C1S(=O)(=O)OCCOS1(=O)=O)c1cccc2ccccc12 ?
Result: inactive

Request: Could you check what this test reported for COC(=O)CCC(=O)CC(=O)C(=O)Nc1ccc(F)cc1 ?
Result: inactive

Request: What is the recorded call for this molecule in the test? Oc1ccc(C[C@@H]2CN[C@H](Cc3ccc(O)c(Br)c3)CN2)cc1
Result: inactive

Request: Hey, what did the test say about Nc1ncc(Br)c(NCC2(CO)CCC2)n1 ?
Result: inactive

Request: What is the recorded call for this molecule in the test? S=C1CC(c2ccccc2)Sc2ccccc2N1 (stereo not given)
Result: inactive

Request: What outcome does the record of this test show for O=C(O)CN(c1ccc(F)cc1)S(=O)(=O)c1ccccc1 ?
Result: inactive

###

# Test system: SNB-78
# Assay Comment: NCI tumour cell line growth inhibition, 48 h
Activity calls are given as the source filed them. Cut-off read from the data, not from the text of the source: active = GI50 up to about 1.1 µM and inactive = higher.
Readout Name: GI50

[[record]]
compound = "CCN(CC)c1c(C(=O)/C=C/c2ccc(F)cc2)c(-c2ccccc2)nn(C)c1=O"
test_result = "14.4 µM (inactive)"

[[record]]
compound = "CC(C)(C)OC(=O)NCCc1cccc2c1oc1c(CCC(=O)O)cccc12"
test_result = "> 100 µM (inactive)"

[[record]]
compound = "Cc1ccc(NC(=O)CC/C(CC(=O)C(C)(C)C)=N/NC(=O)C(N)=O)cc1C"
test_result = "> 100 µM (inactive)"

[[record]]
compound = "OCC1O[C@H](O[C@@H]2CCCN3CC(O)C(O)[C@@H]23)C(O)C(O)C1O (some centres undefined)"
test_result = "> 100 µM (inactive)"

[[record]]
compound = "C/C(CC(=O)Nc1cc(Cl)c(Cl)cc1Cl)=N\\NS(=O)(=O)c1ccc(C)cc1"
test_result = "29 µM (inactive)"

[[record]]
compound = "COc1ccc2ccnc(Cc3ccc(OCc4ccccc4)c(OC)c3)c2c1"
test_result = "26.2 µM (inactive)"

[[record]]
compound = "Cc1c2ccccc2c(=O)n2c(-c3ccccn3)cccc12"
test_result = "> 100 µM (inactive)"

[[record]]
compound = "CC1(O)C=CC2CCC1C2O (centres undefined)"
test_result = "> 100 µM (inactive)"

[[record]]
compound = "C=Cc1ccc(C)[n+](C[Si](C)(C)O[Si](C)(C)C)c1"
test_result = "> 100 µM (inactive)"

[[record]]
compound = "COc1ccc2c(CCNC(=O)/C=C/c3ccccc3)c(C(C)=O)[nH]c2c1[N+](=O)[O-]"
test_result = "40.2 µM (inactive)"


// input: 4 compounds below; output: GI50 for each
1. Cc1ccc(C2C(Cl)C(=O)N2n2cnc3ccccc3c2=O)cc1 (centres undefined)
2. O=C(Nc1ccccc1-c1nc2ccccc2[nH]c1=O)c1ccccc1
3. CCC(=O)O[C@@H]1C2C(OC(C)=O)C34COC(C)([C@@H]3C3C(C[C@]3(C)OC(C)=O)[C@@H](OC(=O)c3ccccc3)C4=O)[C@H](OC(C)=O)[C@@]2(OC(C)=O)C[C@@H]1C (some centres undefined)
4. O=NN(CCCl)C(=O)N[C@H]1CC[C@@H](CC(=O)O)CC1

Result:
> 100 µM (inactive)
24 µM (inactive)
5.5 µM (inactive)
> 100 µM (inactive)

###

# Tested on: UACC-257
# Assay Comment: NCI tumour cell line growth inhibition, 48 h
Calls of active or inactive are those of the source. Rule as the data show it: active = GI50 up to about 1.1 µM and inactive = higher.
Readout Name: GI50

Look over these answered cases.
[[record]]
molecule = "O=C(O)C1=C/C(=C(/c2ccccc2)c2cc(C(=O)O)c(O)c3ccccc23)c2ccccc2C1=O"
readout_name = "GI50"
test_result = "> 100 µM (inactive)"

[[record]]
molecule = "CCn1c2ccccc2c2ccc3c(c21)C(=O)C=CC3=O"
readout_name = "GI50"
test_result = "14.6 µM (inactive)"

[[record]]
molecule = "CCC/C(Cl)=N\\OC(=O)Nc1ccc(F)cc1"
readout_name = "GI50"
test_result = "16.7 µM (inactive)"


Hey, quick one: what's GI50 for each of these?
1. Cc1cn2c(/C=N/NC(=N)N)c(-c3ccc([N+](=O)[O-])cc3)nc2s1
2. CCOC(=O)c1c(SCc2cc(=O)[nH]c(=O)[nH]2)n(-c2ccccc2)c(=S)n(-c2ccccc2)c1=O
3. c1ccc(N2N=C3N(c4ccccc4)C2N3c2ccccc2)cc1
4. O=NN1C(c2ccccc2)CC(=NO)CC1c1ccccc1 (stereo not drawn)
5. C[C@]12CCC3[C@@H](CC[C@@H]4c5nonc5CC[C@]34C)C1CCC2=O (stereo partly drawn)
6. CCOC(=O)NC(NCC(O)c1ccccc1)(C(F)(F)F)C(F)(F)F (stereo not drawn)
7. C/C(=N\N=C(/S)N1CC2CCC(CC2)C1)c1ccncn1
8. Cc1c(O)c(=O)ccn1C1OC(CO)C(O)C1O (stereo not drawn)

Result:
1.18 µM (inactive)
> 100 µM (inactive)
23.1 µM (inactive)
> 100 µM (inactive)
18 µM (inactive)
> 100 µM (inactive)
< 0.01 µM (active)
> 100 µM (inactive)

List reported GI50 for each of these molecules:
1. N#C/C(=C/c1ccsc1)C(=O)c1ccccc1
2. CCOC(=O)/C(C(=O)c1ccccc1)=C1/NCCN1C
3. Clc1ccc(Cl)c(NNc2cc(Cl)ccc2Cl)c1
4. C#CCNC(CSSCC(N)C(=O)O)C(=O)O (stereo not drawn)
5. O=C(NCCN1C(=O)CN=C(c2ccc(Cl)cc2)c2cc(Cl)ccc21)OCc1ccccc1
6. CCc1ccccc1NNc1cc(=O)[nH]c(=O)[nH]1
7. CC(C)(C)OC(=O)N1CCC[C@H]1CSC[C@@H]1CCCN1C(=O)OC(C)(C)C

Result:
1: > 100 µM (inactive); 2: > 100 µM (inactive); 3: > 10 µM (inactive); 4: > 100 µM (inactive); 5: 15.3 µM (inactive); 6: 18.5 µM (inactive); 7: 28.8 µM (inactive)

// each molecule listed below needs its GI50
1. CCOC(=O)CCc1cccc2c1oc1c(CCNC(=O)OCC3c4ccccc4-c4ccccc43)cccc12
2. COC(=O)c1nc(N)nc(O)c1CCCCCc1c(O)nc(N)nc1C(=O)OC
3. O=c1n(-c2ccccc2)c(=O)n2c(-c3ccccc3)c(-c3ccccc3)n12
4. CC1OC(=O)C(C(C)C)NC(=O)C(C(C)C)OC(=O)C(C(C)C)NC(=O)C(C)OC(=O)C(C(C)C)NC(=O)C(C(C)C)OC(=O)C(C(C)C)NC(=O)C(C)OC(=O)C(C(C)C)NC(=O)C(C(C)C)OC(=O)C(C(C)C)NC1=O (stereo not drawn)
5. O=C1c2ccccc2C(=O)c2c(O)ccc(O)c21
6. Cc1ccc(NC(=O)CC/C(CC(=O)C(C)(C)C)=N/NC(=O)C(N)=O)cc1C
7. Cc1cn([C@@H]2C[C@H]2CO)c(=O)[nH]c1=O
8. CN1C(=O)CN2C(Cl)(Cl)C2(c2ccccc2F)c2cc([N+](=O)[O-])ccc21 (stereo not drawn)

Result:
1. 41.9 µM (inactive)
2. > 50 µM (inactive)
3. > 100 µM (inactive)
4. 0.0025 µM (active)
5. > 100 µM (inactive)
6. > 100 µM (inactive)
7. > 100 µM (inactive)
8. 64.4 µM (inactive)

###

# System: UO-31
# Assay Comment: NCI tumour cell line growth inhibition, 48 h
The source made the active and inactive calls. No stated cut-off is given here; in the data, active = GI50 up to about 1.1 µM and inactive = higher.
Return exactly one item of active, inactive

[[record]]
compound = "O=C1C(Cl)=C(Nc2ccc(S(=O)(=O)Nc3ccccn3)cc2)C(=O)c2ccccc21"
cat = "inactive"

[[record]]
compound = "O=C(NCc1ccccc1)c1cc2ccccc2o/c1=N\\c1cccc(C(F)(F)F)c1"
cat = "inactive"

[[record]]
compound = "CN1C(=O)CN2C(Cl)(Cl)C2(c2ccccc2F)c2cc([N+](=O)[O-])ccc21 (stereo unspecified)"
cat = "inactive"


Request: Fill in: this test's call for COc1ccc(CC2c3cc(OC)c(OC)c(OC)c3CC[N+]2(C)C)cc1Oc1ccc(CC2c3cc4c(c(OC)c3CCN2C)OCO4)cc1 (stereo unspecified) is ___
Result: inactive

Request: Record lookup: outcome of this test for CC[C@@]1(O)C(=O)OCc2c1cc1n(c2=O)Cc2c-1nc1ccccc1c2/C=N\NC(=O)C(N)CCSC (stereo partly specified) ?
Result: active

Request: I would be grateful if you could indicate the recorded call for CCCCCCCCCC1CC(=O)NCC(=O)NC(C(C)C)C(=O)NC(CC(C)C)C(=O)NC(C)C(=O)NC(C(C)C)C(=O)O1 (stereo unspecified) .
Result: inactive

Request: Please state the recorded outcome for this compound: C/C(=N\NC(=S)NC(C)(C)C)c1ccccn1
Result: active

Request: Given CC(C)COC(=O)OC(=O)c1ccc(N(C)Cc2cnc3nc(N)nc(N)c3n2)cc1 , state the outcome it received in this test.
Result: inactive

Request: Please let me know the test result on file for O=Cc1c(O)ccc2ccc(O)c(-c3c(O)ccc4ccc(O)cc34)c12 .
Result: inactive

Request: Test call for this compound, please: Cc1cc(C)nc(NS(=O)(=O)c2ccc(NC(=O)c3ccc4nc5ccccc5c(Nc5ccc(S(=O)(=O)N=C(N)N)cc5)c4c3)cc2)n1
Result: inactive
